experimental_system: truncated PI3Kα (p110α/iSH2 p85α) (Homo sapiens (Human))
Sequence (P42336 whole entry, the tested form may be a part): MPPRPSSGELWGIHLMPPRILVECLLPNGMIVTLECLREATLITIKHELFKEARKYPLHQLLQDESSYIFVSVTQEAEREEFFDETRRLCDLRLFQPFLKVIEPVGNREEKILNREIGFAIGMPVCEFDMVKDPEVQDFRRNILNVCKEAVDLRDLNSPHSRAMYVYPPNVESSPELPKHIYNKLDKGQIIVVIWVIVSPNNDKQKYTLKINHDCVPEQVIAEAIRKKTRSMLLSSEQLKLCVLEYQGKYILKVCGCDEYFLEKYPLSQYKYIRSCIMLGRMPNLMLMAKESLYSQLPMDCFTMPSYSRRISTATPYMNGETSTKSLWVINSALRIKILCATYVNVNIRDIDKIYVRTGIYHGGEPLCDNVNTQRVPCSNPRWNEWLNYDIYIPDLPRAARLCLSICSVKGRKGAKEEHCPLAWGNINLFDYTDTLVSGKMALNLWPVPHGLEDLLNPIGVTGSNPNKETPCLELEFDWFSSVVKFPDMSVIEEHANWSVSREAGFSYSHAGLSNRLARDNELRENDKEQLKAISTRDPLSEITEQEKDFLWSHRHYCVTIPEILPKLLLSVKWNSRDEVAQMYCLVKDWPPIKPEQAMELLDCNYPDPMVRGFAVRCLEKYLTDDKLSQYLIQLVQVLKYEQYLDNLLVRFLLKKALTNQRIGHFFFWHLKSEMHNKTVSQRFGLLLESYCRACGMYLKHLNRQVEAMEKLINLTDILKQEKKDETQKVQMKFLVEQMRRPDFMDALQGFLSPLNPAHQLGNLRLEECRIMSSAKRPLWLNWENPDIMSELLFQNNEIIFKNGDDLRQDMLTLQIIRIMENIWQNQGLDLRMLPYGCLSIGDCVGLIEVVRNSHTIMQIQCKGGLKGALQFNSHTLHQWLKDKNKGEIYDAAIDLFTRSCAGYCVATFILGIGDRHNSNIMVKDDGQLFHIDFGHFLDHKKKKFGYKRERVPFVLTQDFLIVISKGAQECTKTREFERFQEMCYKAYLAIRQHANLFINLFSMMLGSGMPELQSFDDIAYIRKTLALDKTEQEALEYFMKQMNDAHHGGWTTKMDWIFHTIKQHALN
method_description: PI3KA_Act fluorescence polarization kinase assay (Ki)
Type: biochemical
settings: 1 mM ATP
Description: 2) p110α-iSH2 p85α Complex (Full Length p110α and p85α iSH2)(“PI3KA_Act”) […] The biochemical assays of kinase activity of full-length PI3Kα (full-length p110α/p85a) or truncated PI3Kα (p110α/iSH2 p85a) were conducted using a fluorescence polarization format similar to the procedure of Yuan J., et al., (2011) “PF-04691502, a Potent and Selective Oral Inhibitor of PI3K and mTOR Kinases with Antitumor Activity”, Mol Cancer Ther. 10, 2189-2199. […]
quantity_kind: PI3KA_Act Ki (nM)
Answer format: numeric, nM implied, no suffix.

Query string: So what PI3KA_Act Ki did CC(C)(C)N1CCc2c(-c3cnc(N)nc3)nc(N3CCOCC3)nc21 [Example 132] get with truncated PI3Kα (p110α/iSH2 p85α) (Homo sapiens (Human))?
Result string: 0.150

Query string: Recall the recorded PI3KA_Act Ki for CC[C@H](N)C(=O)N1CC[C@](C)(N2CCc3c(-c4cnc(N)nc4)nc(N4CCOC[C@@H]4C)nc32)C1.Cl [Example 477] with truncated PI3Kα (p110α/iSH2 p85α) (Homo sapiens (Human)) and state it.
Result string: 0.038

Query string: Field: PI3KA_Act Ki (truncated PI3Kα (p110α/iSH2 p85α) (Homo sapiens (Human))). Entry: CC(C)N1CC[C@](C)(N2CCc3c(-c4cnc(N)nc4)nc(N4CCOCC4)nc32)C1 [Example 420]
Result string: 0.601

Query string: // map CN1CCC(N2CC[C@](C)(N3CCc4c(-c5cnc(N)nc5)nc(N5CCOCC5)nc43)C2)C1=O (single isomer, unassigned) [Example 427] to recorded PI3KA_Act Ki (system: truncated PI3Kα (p110α/iSH2 p85α) (Homo sapiens (Human)))
Result string: 0.073

Query string: # get_value(readout= PI3KA_Act Ki, system= truncated PI3Kα (p110α/iSH2 p85α) (Homo sapiens (Human))) for CC(C)(C)OC(=O)N1CC[C@H]1C(=O)N1CC[C@@](C)(N2CCc3c(-c4cnc(N)nc4)nc(N4CCOCC4)nc32)C1 [Example 357]
Result string: 0.144

Query string: Give the reported PI3KA_Act Ki for C[C@H]1COCCN1c1nc(-c2cnc(N)nc2)c2c(n1)N(C1CN(S(=O)(=O)C(F)(F)F)C1)CC2 [Example 163] (system: truncated PI3Kα (p110α/iSH2 p85α) (Homo sapiens (Human))).
Result string: 0.188

Query string: What is its PI3KA_Act Ki for truncated PI3Kα (p110α/iSH2 p85α) (Homo sapiens (Human))? Entry: CCCC(C)(C)N1CCc2c(-c3cnc(N)nc3)nc(N3CCOCC3)nc21 [Example 187]
Result string: 0.839

Query string: API: value(readout= PI3KA_Act Ki, system= truncated PI3Kα (p110α/iSH2 p85α) (Homo sapiens (Human)), query= COC(=O)N1CC[C@@](C)(N2CCc3c(-c4cnc(N)nc4)nc(N4CCOC[C@@H]4C)nc32)C1 [Example 509] )
Result string: 0.135

Query string: Checklist item: PI3KA_Act Ki tested on truncated PI3Kα (p110α/iSH2 p85α) (Homo sapiens (Human)), entry C[C@H]1COCCN1c1nc(-c2cnc(N)nc2)c2c(n1)N(C1CN(S(N)(=O)=O)C1)CC2 [Example 126] , value?
Result string: 0.219

Query string: # get_value(readout= PI3KA_Act Ki, system= truncated PI3Kα (p110α/iSH2 p85α) (Homo sapiens (Human))) for CNC(=O)N1CC[C@@](C)(N2CCc3c(-c4cnc(N)nc4)nc(N4CCOCC4)nc32)C1 [Example 2]
Result string: 0.160

Query string: Lab note: need PI3KA_Act Ki with truncated PI3Kα (p110α/iSH2 p85α) (Homo sapiens (Human)) for entry CN1CC[C@@](C)(N2CCc3c(-c4cnc(N)nc4)nc(N4CCOCC4)nc32)C1 [Example 419] , please look it up.
Result string: 1.990

Query string: Checklist item: PI3KA_Act Ki tested on truncated PI3Kα (p110α/iSH2 p85α) (Homo sapiens (Human)), entry C[C@]1(N2CCc3c(-c4cnc(N)nc4)nc(N4CCOCC4)nc32)CCN(C(=O)CC#N)C1 [Example 265] , value?
Result string: 0.048

Query string: // fetch truncated PI3Kα (p110α/iSH2 p85α) (Homo sapiens (Human)) PI3KA_Act Ki for C[C@@]1(N2CCc3c(-c4cnc(N)nc4)nc(N4CCOCC4)nc32)CCN(C(=O)CC2CC2)C1 [Example 324]
Result string: 0.198

Query string: Record CC(C)OC(=O)N1CC[C@@](C)(N2CCc3c(-c4cnc(N)nc4)nc(N4CCOCC4)nc32)C1 [Example 407] : what is its PI3KA_Act Ki with truncated PI3Kα (p110α/iSH2 p85α) (Homo sapiens (Human))?
Result string: 0.235

Query string: Look up PI3KA_Act Ki with truncated PI3Kα (p110α/iSH2 p85α) (Homo sapiens (Human)) for this compound: CC(C)(C(N)=O)N1CC[C@](C)(N2CCc3c(-c4cnc(N)nc4)nc(N4CCOCC4)nc32)C1 [Example 424]
Result string: 0.321

Query string: GET /values?readout=PI3KA_Act Ki&system=truncated PI3Kα (p110α/iSH2 p85α) (Homo sapiens (Human))&item= C[C@]1(N2CCc3c(-c4cnc(N)nc4)nc(N4CCOCC4)nc32)CCN(C(=O)C2CC(O)C2)C1 (some centres unmarked) [Example 345]
Result string: 0.028

Query string: Give truncated PI3Kα (p110α/iSH2 p85α) (Homo sapiens (Human)) PI3KA_Act Ki for C[C@H](O)C(=O)N1CC[C@](C)(N2CCc3c(-c4cnc(N)nc4)nc(N4CCOCC4)nc32)C1 [Example 268]
Result string: 0.100

Query string: Please provide the recorded PI3KA_Act Ki for CNS(=O)(=O)O[C@H]1C[C@H](N2CCc3c(-c4cnc(N)nc4)nc(N4CCOCC4)nc32)C1 [Example 95] , tested on truncated PI3Kα (p110α/iSH2 p85α) (Homo sapiens (Human)).
Result string: 0.078

Query string: Look up PI3KA_Act Ki with truncated PI3Kα (p110α/iSH2 p85α) (Homo sapiens (Human)) for this compound: CC(C)S(=O)(=O)N1CC[C@H](N2CCc3c(-c4cnc(N)nc4)nc(N4CCOCC4)nc32)C1 [Example 106]
Result string: 0.064

Query string: Notebook: pull reported PI3KA_Act Ki for truncated PI3Kα (p110α/iSH2 p85α) (Homo sapiens (Human)), entry C[C@H]1COCCN1c1nc(-c2cnc(N)nc2)c2c(n1)N([C@]13C[C@H]1CN(C(=O)OC(C)(C)C)C3)CC2 [Example 528]
Result string: 0.092

Query string: # query: PI3KA_Act Ki | item CC(=O)N1CC(S(=O)(=O)N2CC(N3CCc4c(-c5cnc(N)nc5)nc(N5CCOC[C@@H]5C)nc43)C2)C1 [Example 223] | system: truncated PI3Kα (p110α/iSH2 p85α) (Homo sapiens (Human))
Result string: 0.393

Query string: Hello, I am looking for reported PI3KA_Act Ki with truncated PI3Kα (p110α/iSH2 p85α) (Homo sapiens (Human)) for C[C@H]1COCCN1c1nc(-c2cnc(N)nc2)c2c(n1)N(C1CN(S(=O)(=O)C3CCC3)C1)CC2 [Example 463] . Could you help?
Result string: 0.169

Query string: Field: PI3KA_Act Ki (truncated PI3Kα (p110α/iSH2 p85α) (Homo sapiens (Human))). Entry: Nc1ncc(-c2nc(N3CCOCC3)nc3c2CCN3C2CC(F)(F)C2)cn1 [Example 13]
Result string: 0.211

Query string: Checklist item: PI3KA_Act Ki tested on truncated PI3Kα (p110α/iSH2 p85α) (Homo sapiens (Human)), entry C[C@@H]1COCCN1c1nc(-c2cnc(N)nc2)c2c(n1)N([C@@]1(C)CCN(C(=O)OC(C)(C)C)C1)CC2 [Example 229] , value?
Result string: 0.055

###

experimental_system: truncated PI3Kα (p110α/iSH2 p85α) (Homo sapiens (Human))
method_description: PI3KA_Act fluorescence polarization kinase assay (Ki)
Type: biochemical
settings: 1 mM ATP
Would you mind telling me the reported PI3KA_Act Ki of each entry?
Entry rule: numbers only, all in pM.

Query string: Which measured PI3KA_Act Ki belongs to C[C@H]1COCCN1c1nc(-c2cnc(N)nc2)c2c(n1)N([C@H]1CCN(P(C)(C)=O)C1)CC2 , tested on truncated PI3Kα (p110α/iSH2 p85α) (Homo sapiens (Human))?
Result string: 297

Query string: Reported PI3KA_Act Ki for truncated PI3Kα (p110α/iSH2 p85α) (Homo sapiens (Human)), given C[C@H]1COCCN1c1nc(-c2cnc(N)nc2)c2c(n1)N([C@H]1CCN(S(N)(=O)=O)C1)CC2 ?
Result string: 132

Query string: Query the reported PI3KA_Act Ki for truncated PI3Kα (p110α/iSH2 p85α) (Homo sapiens (Human)); item: CCC(C)(O)C(=O)N1CC[C@](C)(N2CCc3c(-c4cnc(N)nc4)nc(N4CCOCC4)nc32)C1 (single isomer, unassigned) [Example 274]
Result string: 145

Query string: Hi! What's the reported PI3KA_Act Ki for C[C@]1(N2CCc3c(-c4cnc(N)nc4)nc(N4CCOCC4)nc32)CCN(C2CCCNC2=O)C1 (single isomer, unassigned) [Example 428] on truncated PI3Kα (p110α/iSH2 p85α) (Homo sapiens (Human))?
Result string: 67

Query string: Give PI3KA_Act Ki (truncated PI3Kα (p110α/iSH2 p85α) (Homo sapiens (Human))) of the following molecule: CC(C)(C)NC(=O)N1CC[C@](C)(N2CCc3c(-c4cnc(N)nc4)nc(N4CCOCC4)nc32)C1
Result string: 101

Query string: Find the measured PI3KA_Act Ki: item C[C@H]1COCCN1c1nc(-c2cnc(N)nc2)c2c(n1)N(C1CN(S(=O)(=O)CC3CC3)C1)CC2 , target or system truncated PI3Kα (p110α/iSH2 p85α) (Homo sapiens (Human)).
Result string: 97

Query string: Test system truncated PI3Kα (p110α/iSH2 p85α) (Homo sapiens (Human)); read-out PI3KA_Act Ki; what value for C[C@H]1COCCN1c1nc(-c2cnc(N)nc2)c2c(n1)N([C@@]1(C)CCN(C(=O)C(C)(C)CO)C1)CC2.Cl ?
Result string: 45

Query string: Give the reported PI3KA_Act Ki for CC1(C(=O)N2CC[C@](C)(N3CCc4c(-c5cnc(N)nc5)nc(N5CCOCC5)nc43)C2)CCCO1 (single isomer, unassigned) (system: truncated PI3Kα (p110α/iSH2 p85α) (Homo sapiens (Human))).
Result string: 90

Query string: Please state recorded PI3KA_Act Ki (tested on truncated PI3Kα (p110α/iSH2 p85α) (Homo sapiens (Human))) of COCCCS(=O)(=O)N1CC(N2CCc3c(-c4cnc(N)nc4)nc(N4CCOCC4)nc32)C1
Result string: 202

Query string: Missing value: PI3KA_Act Ki, truncated PI3Kα (p110α/iSH2 p85α) (Homo sapiens (Human)), entry C[C@]1(N2CCc3c(-c4cnc(N)nc4)nc(N4CCOCC4)nc32)CCN(C(=O)C2(O)CCC2)C1 . Fill in?
Result string: 89

Query string: Quick check: PI3KA_Act Ki on truncated PI3Kα (p110α/iSH2 p85α) (Homo sapiens (Human)), item C[C@H](N)C(=O)N1CC[C@](C)(N2CCc3c(-c4cnc(N)nc4)nc(N4CCOC[C@@H]4C)nc32)C1.Cl ?
Result string: 68
